Can you tell me IC50 for the items I'm about to list?
target-or-test-system: CHIKV nsP2pro (Chikungunya virus, UniProt Q8JUX6)
test-summary: FRET-based nsP2pro proteolytic assay with peptide 2 (nsp3/4 site), 1,536-well qHTS
Type: biochemical
Express your answer in µM, writing the number without its unit.

Query block: IC50 lookup needed for O=c1oc2c3c(ccc2c2ccccc12)OCN(Cc1ccc(Cl)cc1)C3 , thanks.
Result block: 4.5

Query block: Quick one: IC50 for Nc1nc2c(s1)CCN(Cc1ccc(Cl)cc1)CC2 ?
Result block: 7.9

Query block: Name the recorded IC50 for O=c1oc2c3c(ccc2c2ccccc12)OCN(Cc1ccccc1Cl)C3 .
Result block: 4

###

target-or-test-system: CHIKV nsP2pro (Chikungunya virus, UniProt Q8JUX6)
test-summary: FRET-based nsP2pro proteolytic assay with peptide 2 (nsp3/4 site), 1,536-well qHTS
Type: biochemical
For each entry below, report its pIC50 value.
// scale note: pIC50 = -log10(conc_M); give the bare number

Query block: Find the recorded pIC50 belonging to C[C@H](N)[C@H](O)c1ccc(O)c(O)c1 [Levonordefrin] and report it.
Result block: 5.11

Query block: Which pIC50 is listed for CCC[C@H](NC(=O)[C@@H]1[C@H]2CCC[C@H]2CN1C(=O)[C@@H](NC(=O)[C@@H](NC(=O)c1cnccn1)C1CCCCC1)C(C)(C)C)C(=O)C(=O)NC1CC1 [Telaprevir] ?
Result block: 5.46

Query block: Which pIC50 value belongs to COc1cccc(C(=O)CCN[C@@H](C)[C@H](O)c2ccccc2)c1 [Oxyfedrine] ?
Result block: 5.89

Query block: Given the entry C/C(=N\NC(=N)N)c1cc(NC(=O)CCCCCCCCC(=O)Nc2cc(/C(C)=N/NC(=N)N)cc(/C(C)=N/NC(=N)N)c2)cc(/C(C)=N/NC(=N)N)c1 [Semapimod] , report its measured pIC50.
Result block: 5.20

###

target-or-test-system: UniProtKB Q8JUX6
test-summary: FRET-based nsP2pro proteolytic assay with peptide 2 (nsp3/4 site), 1,536-well qHTS
Type: biochemical
conditions: nsP2pro biochemical assay, 13 cell-active hits; read-out: Enzymatic IC50
Field 'label' (enum: MET / NOT MET). Set to MET when IC50 is strictly under 8 µM; else NOT MET.

Query block: Lab log: compare recorded IC50 with 8 µM; is it strictly lower for Cc1cccc(C(=O)Nc2ccc(N3CCN(c4ccc(F)cc4)CC3)c(C(=O)O)c2)c1 ?
Result block: NOT MET

Query block: Does the reported IC50 of Cc1ccc(OCCn2c(CCNC(=O)c3ccccc3N)nc3ccccc32)cc1 stay below 8 µM?
Result block: MET

Query block: For this molecule, is IC50 lower than 8 µM? Cc1cccc(-c2noc([C@@H]3Cc4nc[nH]c4CN3C(=O)NC3CCCCC3)n2)c1
Result block: MET

###

target-or-test-system: UniProtKB Q8JUX6
test-summary: FRET-based nsP2pro proteolytic assay with peptide 2 (nsp3/4 site), 1,536-well qHTS
Type: biochemical
conditions: nsP2pro biochemical assay, 13 cell-active hits
observed-property: Enzymatic % Efficacy (%)
Give the quantity in %, number only.

Query block: // fetch UniProtKB Q8JUX6 Enzymatic % Efficacy for CC(C)n1nc(C#Cc2ccccc2)c2c(N)ncnc21
Result block: -114.8

Query block: Item CCOc1ccc(NC(=O)c2c(NC(=O)Cc3ccccc3)sc3c2CCCCC3)cc1 with UniProtKB Q8JUX6 - Enzymatic % Efficacy?
Result block: -80.1

Query block: Recall the recorded Enzymatic % Efficacy for Cc1cccc(-c2noc([C@@H]3Cc4nc[nH]c4CN3C(=O)NC3CCCCC3)n2)c1 with UniProtKB Q8JUX6 and state it.
Result block: -107.3

Query block: Test system UniProtKB Q8JUX6; read-out Enzymatic % Efficacy; what value for Cc1cccc(C(=O)Nc2ccc(N3CCN(c4ccc(F)cc4)CC3)c(C(=O)O)c2)c1 ?
Result block: -83

Query block: # value lookup — system UniProtKB Q8JUX6, readout Enzymatic % Efficacy, item Cc1ccc(OCCn2c(CCNC(=O)c3ccccc3N)nc3ccccc32)cc1
Result block: -106.1

###

I'd be grateful if you could share measured Emax for these entries.
target-or-test-system: UniProt:Q8JUX6
test-summary: FRET-based nsP2pro proteolytic assay with peptide 2 (nsp3/4 site), 1,536-well qHTS
Format: biochemical
conditions: read-out: Enzymatic % Efficacy
Supply the numeric figure in %, leaving out any unit text.

Query block: Value lookup for Emax; key = Nc1nc2c(s1)CCN(Cc1ccc(Cl)cc1)CC2
Result block: -62.1

Query block: Which Emax value is on record for O=c1oc2c3c(ccc2c2ccccc12)OCN(Cc1ccc(Cl)cc1)C3 ?
Result block: -114

Query block: If you can, please state the reported Emax value of O=c1oc2c3c(ccc2c2ccccc12)OCN(Cc1ccccc1Cl)C3 .
Result block: -103

Query block: Record request: Emax value, item CCC[C@H](NC(=O)[C@@H]1[C@H]2CCC[C@H]2CN1C(=O)[C@@H](NC(=O)[C@@H](NC(=O)c1cnccn1)C1CCCCC1)C(C)(C)C)C(=O)C(=O)NC1CC1
Result block: -123

Query block: Recorded Emax of COc1cccc(C(=O)CCN[C@@H](C)[C@H](O)c2ccccc2)c1 , please.
Result block: -88.6

Query block: What measured Emax goes with C[C@H](N)[C@H](O)c1ccc(O)c(O)c1 ?
Result block: -74.9

Query block: I'd like to know its Emax. The compound in question is C/C(=N\NC(=N)N)c1cc(NC(=O)CCCCCCCCC(=O)Nc2cc(/C(C)=N/NC(=N)N)cc(/C(C)=N/NC(=N)N)c2)cc(/C(C)=N/NC(=N)N)c1
Result block: -106

###

target-or-test-system: nsP2 protease (Chikungunya virus, UniProt Q8JUX6)
Construct: expressed in transfected cells; host or cells: HEK293T (the results text says HEK293), transient co-transfection in pcDNA3.1(+)
Sequence (Q8JUX6 755-1333 limits assumed): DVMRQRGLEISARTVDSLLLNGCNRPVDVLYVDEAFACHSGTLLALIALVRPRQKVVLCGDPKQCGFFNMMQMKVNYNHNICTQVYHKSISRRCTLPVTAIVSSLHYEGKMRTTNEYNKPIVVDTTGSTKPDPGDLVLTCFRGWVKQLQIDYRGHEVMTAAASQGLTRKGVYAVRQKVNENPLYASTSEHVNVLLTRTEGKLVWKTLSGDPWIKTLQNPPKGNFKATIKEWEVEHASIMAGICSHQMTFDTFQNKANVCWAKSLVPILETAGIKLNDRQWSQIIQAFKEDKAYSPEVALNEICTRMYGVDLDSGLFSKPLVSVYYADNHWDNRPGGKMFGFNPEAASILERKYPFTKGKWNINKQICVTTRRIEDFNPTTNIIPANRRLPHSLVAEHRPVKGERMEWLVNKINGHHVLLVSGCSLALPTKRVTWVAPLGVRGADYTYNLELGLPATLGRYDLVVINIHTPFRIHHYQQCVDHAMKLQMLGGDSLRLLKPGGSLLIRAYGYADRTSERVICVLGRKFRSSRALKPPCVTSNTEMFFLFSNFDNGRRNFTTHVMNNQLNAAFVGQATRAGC
test-summary: cell-based
Format: cell-based
Give AC50 for every item shown.
Number in nM, nothing else.

Query block: // returns reported AC50 for input O=c1oc2c3c(ccc2c2ccccc12)OCN(Cc1ccc(Cl)cc1)C3 [NCGC00116366]
Result block: 36500

Query block: # input compound: Nc1nc2c(s1)CCN(Cc1ccc(Cl)cc1)CC2 [B-HT 958] ; wanted: its AC50
Result block: 230

Query block: Fill blank: measured AC50 of the compound C[C@H](N)[C@H](O)c1ccc(O)c(O)c1 [Levonordefrin] is ____.
Result block: 400

Query block: Name the reported AC50 value associated with the compound C/C(=N\NC(=N)N)c1cc(NC(=O)CCCCCCCCC(=O)Nc2cc(/C(C)=N/NC(=N)N)cc(/C(C)=N/NC(=N)N)c2)cc(/C(C)=N/NC(=N)N)c1 [Semapimod]
Result block: 2200

Query block: Look at this compound and give its reported AC50. O=c1oc2c3c(ccc2c2ccccc12)OCN(Cc1ccccc1Cl)C3 [NCGC00116374]
Result block: 14500

Query block: Item under review: CCC[C@H](NC(=O)[C@@H]1[C@H]2CCC[C@H]2CN1C(=O)[C@@H](NC(=O)[C@@H](NC(=O)c1cnccn1)C1CCCCC1)C(C)(C)C)C(=O)C(=O)NC1CC1 [Telaprevir] . Reported AC50?
Result block: 31600

Query block: Returns the measured AC50 for the input compound. Input: COc1cccc(C(=O)CCN[C@@H](C)[C@H](O)c2ccccc2)c1 [Oxyfedrine]
Result block: 2600

###

target-or-test-system: nsP2 protease (Chikungunya virus)
Construct: expressed in transfected cells; host or cells: HEK293T (the results text says HEK293), transient co-transfection in pcDNA3.1(+)
Sequence (Q8JUX6 755-1333 limits assumed): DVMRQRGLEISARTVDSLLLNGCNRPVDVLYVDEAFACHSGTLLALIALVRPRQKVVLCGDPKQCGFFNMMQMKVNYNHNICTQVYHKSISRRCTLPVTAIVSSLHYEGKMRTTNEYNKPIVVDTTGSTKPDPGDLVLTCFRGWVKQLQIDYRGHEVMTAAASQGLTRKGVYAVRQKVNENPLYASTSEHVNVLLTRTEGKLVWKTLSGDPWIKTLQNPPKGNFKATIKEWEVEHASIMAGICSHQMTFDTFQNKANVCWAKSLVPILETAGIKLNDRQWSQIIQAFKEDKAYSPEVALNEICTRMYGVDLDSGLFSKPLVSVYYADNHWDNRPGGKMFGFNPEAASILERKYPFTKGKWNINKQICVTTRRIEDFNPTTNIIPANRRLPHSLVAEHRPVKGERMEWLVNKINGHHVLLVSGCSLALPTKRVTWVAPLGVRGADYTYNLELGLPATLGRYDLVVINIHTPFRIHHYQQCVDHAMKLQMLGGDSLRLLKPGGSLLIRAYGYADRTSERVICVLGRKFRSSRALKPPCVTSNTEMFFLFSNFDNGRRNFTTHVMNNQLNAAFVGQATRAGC
test-summary: cell-based
Type: cell-based
observed-property: Cell-based % Efficacy (%)
Respond with the bare value in %.

Query block: Recorded Cell-based % Efficacy for CCOc1ccc(NC(=O)c2c(NC(=O)Cc3ccccc3)sc3c2CCCCC3)cc1 , please?
Result block: 101.3

Query block: Fill in the blank: the reported Cell-based % Efficacy of Cc1cccc(C(=O)Nc2ccc(N3CCN(c4ccc(F)cc4)CC3)c(C(=O)O)c2)c1 is ____.
Result block: 55.5

Query block: For the molecule shown here, CC(C)n1nc(C#Cc2ccccc2)c2c(N)ncnc21 , give the reported Cell-based % Efficacy.
Result block: 146.3

Query block: Consider the molecule shown here: Cc1cccc(-c2noc([C@@H]3Cc4nc[nH]c4CN3C(=O)NC3CCCCC3)n2)c1 What is its recorded Cell-based % Efficacy?
Result block: 75.7

Query block: Record request: Cell-based % Efficacy value, item Cc1ccc(OCCn2c(CCNC(=O)c3ccccc3N)nc3ccccc32)cc1
Result block: 179
